Tested on: Rattus norvegicus
Experiment: Maximum effect of 30 mg/kg administered orally on mean aortic blood pressure in the conscious renal hypertensive rat
Type: functional, Artery
Details: route oral
READOUT_NAME: Mean aortic blood pressure at maximum effect (mmHg)
The reply should contain only the number, in mmHg.

Answer with the recorded Mean aortic blood pressure at maximum effect of O=C(NC(Cc1ccccc1)C(=O)CCC(=O)N1CCC[C@H]1C(=O)O)c1ccco1 (stereo partly specified) only. 184

Kindly indicate its recorded Mean aortic blood pressure at maximum effect. Item: COc1ccc(CC(NC(=O)c2ccccc2)C(=O)CCC(=O)N2CCC[C@H]2C(=O)O)cc1OC (stereo partly specified) 174

Could you please provide reported Mean aortic blood pressure at maximum effect for O=C(CCC(=O)N1CCC[C@H]1C(=O)O)C(Cc1ccccc1)NC(=O)C1CCCO1 (stereo partly specified) ? Thanks! 163

Determine its reported Mean aortic blood pressure at maximum effect: Cc1ccccc1C(=O)NC(Cc1ccccc1)C(=O)CCC(=O)N1CCC[C@H]1C(=O)O (stereo partly specified) 188

Next:
Given O=C(NC(Cc1ccccc1)C(=O)CCC(=O)N1CCC[C@H]1C(=O)O)OCc1ccccc1 (stereo partly specified) , respond with its Mean aortic blood pressure at maximum effect. 175

Indicate its recorded Mean aortic blood pressure at maximum effect; the compound in question is O=C(CCC(=O)C(Cc1ccccc1)NC(=O)c1ccccc1)NC(Cc1ccccc1)C(=O)OCc1ccccc1 (stereo unspecified) 182

Answer with the recorded Mean aortic blood pressure at maximum effect of O=C(NC(Cc1cccnc1)C(=O)CCC(=O)N1CCC[C@H]1C(=O)OCc1ccccc1)c1ccccc1 (stereo partly specified) only. 159

Give recorded Mean aortic blood pressure at maximum effect. O=C(N[C@@H](Cc1ccccc1)C(=O)CCC(=O)N1CCC[C@H]1C(=O)O)c1ccccc1 178

Given Cc1ccccc1C(=O)NC(Cc1ccccc1)C(=O)CCC(=O)N1CCC[C@H]1C(=O)OCc1ccccc1 (stereo partly specified) , respond with its Mean aortic blood pressure at maximum effect. 175

// Input: O=C(NC(Cc1cccnc1)C(=O)CCC(=O)N1CCC[C@H]1C(=O)O)c1ccccc1 (stereo partly specified) . Output its Mean aortic blood pressure at maximum effect only. 184

Respond only with Mean aortic blood pressure at maximum effect recorded for O=C(NC(Cc1ccccc1)C(=O)CCC(=O)N1CC(O)C[C@H]1C(=O)O)c1ccccc1 (stereo partly specified) 168

----------
# Mean aortic blood pressure at maximum effect per entry
Test system: Rattus norvegicus
Assay: Maximum effect of 30 mg/kg administered orally on mean aortic blood pressure in the conscious renal hypertensive rat
Type: functional, Artery
Conditions: route oral
A number alone suffices; assume mmHg.

Read the entry CC(=O)NC(Cc1ccccc1)C(=O)CCC(=O)N1CCC[C@H]1C(=O)O (stereo not given in full) and write its reported Mean aortic blood pressure at maximum effect. 176

Further cases:
State, in one line, measured Mean aortic blood pressure at maximum effect of O=C(NC(Cc1ccc(OCc2ccccc2)cc1)C(=O)CCC(=O)N1CCC[C@H]1C(=O)O)c1ccccc1 (stereo not given in full) 195

Give a short answer stating reported Mean aortic blood pressure at maximum effect for COC(=O)[C@@H]1CCCN1C(=O)CCC(=O)C(Cc1ccccc1)NC(=O)c1ccccc1 (stereo not given in full) . 142

# return recorded Mean aortic blood pressure at maximum effect for entry C[C@H](CS)C(=O)N1CCC[C@H]1C(=O)O 85

Report measured Mean aortic blood pressure at maximum effect; entry is O=C(NC(Cc1ccc(O)cc1)C(=O)CCC(=O)N1CCC[C@H]1C(=O)O)c1ccccc1 (stereo not given in full) 172
